We begin with a simple list: items and their reported Triticum aestivum (efficacy in %).
# Test system: Triticum aestivum
# assay_info: Post-emergence crop plant compatibility
# Format: in vivo
# condition_set: application rate 5 g/ha
endpoint_name: Triticum aestivum (efficacy in %)

[[record]]
molecule = "Cn1c(C(F)(F)F)cc(=O)n(-c2cc(Oc3cccnc3OCC(=O)OCC3NC(=O)NC3=O)c(Cl)cc2F)c1=O (stereo not drawn)"
target_of_assay = "Triticum aestivum"
value_observed = "20%"

[[record]]
molecule = "Cn1c(C(F)(F)F)cc(=O)n(-c2cc(Oc3cccnc3OCC(=O)OCCOC(F)(F)F)c(Cl)cc2F)c1=O"
target_of_assay = "Triticum aestivum"
value_observed = "20%"

[[record]]
molecule = "Cn1c(C(F)(F)F)cc(=O)n(-c2cc(Oc3cccnc3OCC(=O)OCC[Si](C)(C)C)c(Cl)cc2F)c1=O"
target_of_assay = "Triticum aestivum"
value_observed = "0%"

[[record]]
molecule = "COCCOCCOCCOCCOC(=O)COc1ncccc1Oc1cc(-n2c(=O)cc(C(F)(F)F)n(C)c2=O)c(F)cc1Cl"
target_of_assay = "Triticum aestivum"
value_observed = "0%"

[[record]]
molecule = "Cn1c(C(F)(F)F)cc(=O)n(-c2cc(Oc3cccnc3OCC(=O)OCCOCc3ccccc3)c(Cl)cc2F)c1=O"
target_of_assay = "Triticum aestivum"
value_observed = "20%"

[[record]]
molecule = "Cn1c(C(F)(F)F)cc(=O)n(-c2cc(Oc3cccnc3OCC(=O)OC3COC3)c(Cl)cc2F)c1=O"
target_of_assay = "Triticum aestivum"
value_observed = "20%"

[[record]]
molecule = "Cn1c(C(F)(F)F)cc(=O)n(-c2cc(Oc3cccnc3OCC(=O)OCCS(C)(=O)=O)c(Cl)cc2F)c1=O"
target_of_assay = "Triticum aestivum"
value_observed = "0%"

[[record]]
molecule = "Cn1c(C(F)(F)F)cc(=O)n(-c2cc(Oc3cccnc3OCC(=O)OCc3ccc(C(F)(F)F)nc3)c(Cl)cc2F)c1=O"
target_of_assay = "Triticum aestivum"
value_observed = "20%"

[[record]]
molecule = "Cn1c(C(F)(F)F)cc(=O)n(-c2cc(Oc3cccnc3OCC(=O)OCC#N)c(Cl)cc2F)c1=O"
target_of_assay = "Triticum aestivum"
value_observed = "20%"


Reference source: patent US20220289708A1
